Assay overview: Safety index is the ratio of UD50 to ED50 in carrageenan hind paw edema; ca. 25
Format: toxicity
Condition: read-out: Safety index
Measured metric: selectivity ratio
Number only, no unit.

// CCOC(=O)C(C)c1ccc2c(c1)SCC1CCCCC1C2=O (stereo unspecified) : selectivity ratio value = 25

* * *

Assay overview: Safety index is the ratio of UD50 to ED50 in carrageenan hind paw edema
Format: toxicity
Condition: read-out: Safety index
Measured metric: selectivity ratio
Number only, no unit.

// `COc1ccc2c(c1)c(CC(=O)O)c(C)n2C(=O)c1ccc(Cl)cc1` : selectivity ratio value = 2.4

* * *

System: Rattus norvegicus
Assay overview: Inhibition of carrageenan hind paw edema in rats after oral administration of a dose of 5 mg/kg
Format: functional
Measured inhibition in vivo at 5 mg/kg of individual entries
The response must be a number in % with no trailing unit.

Guide cases for inhibition in vivo at 5 mg/kg, answers given:
// CC(C(=O)OC/C=C/c1ccccc1)c1ccc2c(c1)SCC1CCCCC1C2=O (configuration not stated) : inhibition in vivo at 5 mg/kg value = 20.3

// CC(C(=O)N1CCCCC1)c1ccc2c(c1)SCC1CCCCC1C2=O (configuration not stated) : inhibition in vivo at 5 mg/kg value = 5.3

Others:
// CC(C(=O)N1CCN(C)CC1)c1ccc2c(c1)SCC1CCCCC1C2=O (configuration not stated) : inhibition in vivo at 5 mg/kg value = 5.3

// COC(=O)C(C)c1ccc2c(c1)SCC1CCCCC1C2=O (configuration not stated) : inhibition in vivo at 5 mg/kg value = 21.6

// CC(C(=O)OC1CCCCC1)c1ccc2c(c1)SCC1CCCCC1C2=O (configuration not stated) : inhibition in vivo at 5 mg/kg value = 15.6
